B1: VH:VL chains; a variant is named by its letters at X, in order (parent)
chain 1: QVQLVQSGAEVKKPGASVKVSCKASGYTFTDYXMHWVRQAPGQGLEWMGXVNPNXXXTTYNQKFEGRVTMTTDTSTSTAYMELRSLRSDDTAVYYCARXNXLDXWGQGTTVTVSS
chain 2: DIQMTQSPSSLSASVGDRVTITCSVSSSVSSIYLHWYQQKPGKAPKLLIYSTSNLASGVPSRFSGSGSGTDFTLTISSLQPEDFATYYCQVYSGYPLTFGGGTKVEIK

Variants of: B1
experimental protocol: yeast display scFab, FACS + sequencing
condition set: with MET
This is one part of the list. No count for the full screen is at hand.

mutation notation	antigen binding call
YRAGDSWD	binds
YRRKGAGD	binds
AEARAAGS chain 1 V37I	no binding
YTETGDSV	no binding
STGTGYVF	no binding
DGGTNAGD	no binding
FRGRGSWV	binds
FAAGGSGD	no binding
YKRRSASA	binds
YGGTSYSV	no binding
YAGRGDGA	no binding
YRTGGSLD	binds
YRAGSSGD	binds
YRGRGYSV	binds
YAGTGFWV	no binding
YRERDSAD	no binding
VATGDDWV	no binding
SEARSDAD	no binding
YRGGGDSV	binds
FTGGDALA	binds
VRAGDDGS	no binding
FRERGDGA	no binding
DEAGGDGY	no binding
YKRGSSGD	binds
ATTKSDAA	no binding
VRRGSSAV	binds
FAGGGDWV	no binding
VRATGYWA	no binding
DAKEGAGD	no binding
YRERNAAA	no binding
VATGDDVD	no binding
YRAKSSSS	binds
YRAKGSLD	binds
ARAGGAAA	binds
DARGGDGS	no binding
SGKGGSAY	no binding
VRRRGSGD	binds
DETGGDWF	no binding
YAGRGDSA	no binding
DREEGDGS	no binding
YRERGSAD	binds
DKEGGDVA	no binding
YRGRGYWA	binds
YKGRGVGA	binds
DEGGTDSA	no binding
YRGGDDSV	no binding
YRTKASLD	binds
VRRRGAGD	binds
DGRGNSGD	no binding
YRAGGVGF	binds
YRAGGYGF	binds
VTTKSDVA	no binding
YKRGGSGD	binds
DTRTAYGF	no binding
YRGGGDWV	binds
FKRRSVGA	no binding
VKGRADWD	no binding
VEGTSSGD	no binding
ARRGSAVS	no binding
VTGGDALA	no binding
YRRRGAGD	binds
SEARSDVD	no binding
YRAGASGD	binds
FREGGSGD	no binding
FRERGYGA	no binding
VKGRSFLV	no binding
VRRGSAGD	binds
VRRGSAGS	binds
YGRGNSGD	binds
VRAGADGV	no binding
DGGKNDWV	no binding
VKGGNVGV	no binding
AKGRGDGA	no binding
VRERGSAD	binds
YRGKGAGF	binds
SEARSALV	no binding
FRERGSAD	binds
YRGRGDSV	binds
VEGRGDGA	no binding
DAKEGDAD	no binding
FRERGALA	binds
FTKAASWV	no binding
YRERGALA	binds
VEKEGAGD	no binding
VRRGSSGD	binds
YRERGAAA	binds
VRGGGDWV	no binding
YRRRGYGD	binds
YAGRGASA	no binding
YRERGAAD	binds
FAKTDAGF chain 1 G108D	no binding

Reference for the values: the emibetuzumab library of Makowski et al. (2022)
